From: BindingDB's records for doi:10.1016/s0014-2999(02)02124-6

Consider the following compounds; for each one, report its pKi.
molecular target: Substance-P receptor (Homo sapiens, UniProt P25103)
Sequence (P25103 whole entry): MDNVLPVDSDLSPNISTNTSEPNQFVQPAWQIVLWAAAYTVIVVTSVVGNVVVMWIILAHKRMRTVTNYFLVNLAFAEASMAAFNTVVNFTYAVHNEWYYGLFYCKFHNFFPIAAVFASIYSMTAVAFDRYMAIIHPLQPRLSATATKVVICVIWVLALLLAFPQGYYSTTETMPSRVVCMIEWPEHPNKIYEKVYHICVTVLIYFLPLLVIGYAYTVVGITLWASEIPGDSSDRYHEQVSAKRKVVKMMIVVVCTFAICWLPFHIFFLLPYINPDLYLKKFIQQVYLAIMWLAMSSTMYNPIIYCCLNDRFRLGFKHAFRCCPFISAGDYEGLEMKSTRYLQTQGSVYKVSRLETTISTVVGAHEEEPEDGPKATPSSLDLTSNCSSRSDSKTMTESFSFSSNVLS
# log scale: pKi equals minus log10 of the concentration in mol/L

Problem: Sample CC(=O)NC1(c2ccccc2)CCN(CCC(CN(C)C(=O)c2ccccc2)c2ccc(Cl)c(Cl)c2)CC1 (configuration not stated) — what was its pKi?
Result: 6.56

Problem: Next compound: CNC(=O)CC1CCCN(C2CCN(CC[C@@H](/C(CN(C)C(=O)c3cc(Cl)cc(Cl)c3)=N/OC)c3ccc(Cl)c(Cl)c3)CC2)C1=O (some centres not stated)
Result: 8.89
